Tested on: Escherichia coli TOP10
Experiment: shrunken log2 fold change of peptide-encoding DNA abundance (4.5 h post-induction vs induction); higher = less antimicrobial activity (less host growth inhibition)
Details: time post-induction: 4.5 h; library: site-saturation at positions 5, 18, 19, 20
Entry flag: TRUE if shrunken log2 fold change reaches 0.1; FALSE if it does not.

Field: example entries. Status: answers known.
[
  {
    "Chain": "RRIRHRPPRLPRPRPRPWQNPRP",
    "Answer Label": "FALSE"
  },
  {
    "Chain": "RRIRPRPPRLPRPRPRPLSDPRP",
    "Answer Label": "FALSE"
  },
  {
    "Chain": "RRIRVRPPRLPRPRPRPCVTPRP",
    "Answer Label": "FALSE"
  },
  {
    "Chain": "RRIRRRPPRLPRPRPRPAFFPRP",
    "Answer Label": "TRUE"
  },
  {
    "Chain": "RRIRARPPRLPRPRPRPLNQPRP",
    "Answer Label": "FALSE"
  }
]

Attention now turns to another entry.
Prompt: Textbook exercise: given the entry `RRIRTRPPRLPRPRPRPEFGPRP` , state whether its shrunken log2 fold change is greater than or equal to 0.1.
Response: FALSE

---

System: Escherichia coli TOP10
Experiment: shrunken log2 fold change of peptide-encoding DNA abundance (4.5 h post-induction vs induction); higher = less antimicrobial activity (less host growth inhibition)
Details: time post-induction: 4.5 h; library: site-saturation at positions 5, 18, 19, 20
Catalogue of shrunken log2 fold change readings, one per entry.
No unit in the answer, only the number.

Past entries and their recorded results:
[
  {
    "Chain": "RRIRSRPPRLPRPRPRPYMKPRP",
    "shrunken log2 fold change": -0.421
  },
  {
    "Chain": "RRIRCRPPRLPRPRPRPRAVPRP",
    "shrunken log2 fold change": 0.405
  },
  {
    "Chain": "RRIRWRPPRLPRPRPRPCNCPRP",
    "shrunken log2 fold change": -0.289
  },
  {
    "Chain": "RRIRQRPPRLPRPRPRPVTGPRP",
    "shrunken log2 fold change": 0.0279
  },
  {
    "Chain": "RRIRKRPPRLPRPRPRPSPFPRP",
    "shrunken log2 fold change": 0.0443
  }
]

# evaluate next
Prompt: If you can, please state the reported shrunken log2 fold change value of `RRIRNRPPRLPRPRPRPTDDPRP` .
Response: 0.0875

---

System: Escherichia coli TOP10
Assay: shrunken log2 fold change of peptide-encoding DNA abundance (4.5 h post-induction vs induction); higher = less antimicrobial activity (less host growth inhibition)
Settings: time post-induction: 4.5 h; library: site-saturation at positions 5, 18, 19, 20
Readout: shrunken log2 fold change

[
  {
    "Chain": "RRIRWRPPRLPRPRPRPEQWPRP",
    "shrunken log2 fold change": 0.724
  },
  {
    "Chain": "RRIRSRPPRLPRPRPRPFCEPRP",
    "shrunken log2 fold change": -0.0573
  },
  {
    "Chain": "RRIRERPPRLPRPRPRPCQMPRP",
    "shrunken log2 fold change": -0.161
  },
  {
    "Chain": "RRIRNRPPRLPRPRPRPIHYPRP",
    "shrunken log2 fold change": -0.285
  },
  {
    "Chain": "RRIRCRPPRLPRPRPRPQCYPRP",
    "shrunken log2 fold change": -0.474
  },
  {
    "Chain": "RRIRFRPPRLPRPRPRPWGYPRP",
    "shrunken log2 fold change": -0.164
  }
]

Prompt: I'm curious: which shrunken log2 fold change was measured for `RRIRCRPPRLPRPRPRPNHWPRP` tested on Escherichia coli TOP10?
Response: -0.0209

Prompt: I'm curious: which shrunken log2 fold change was measured for `RRIRQRPPRLPRPRPRPQNLPRP` tested on Escherichia coli TOP10?
Response: -0.0271

Prompt: I'm curious: which shrunken log2 fold change was measured for `RRIRTRPPRLPRPRPRPHDQPRP` tested on Escherichia coli TOP10?
Response: 0.0187

Prompt: I'm curious: which shrunken log2 fold change was measured for `RRIRDRPPRLPRPRPRPKLVPRP` tested on Escherichia coli TOP10?
Response: 0.0305

Prompt: I'm curious: which shrunken log2 fold change was measured for `RRIRSRPPRLPRPRPRPCRCPRP` tested on Escherichia coli TOP10?
Response: -0.358

Prompt: I'm curious: which shrunken log2 fold change was measured for `RRIRHRPPRLPRPRPRPSAQPRP` tested on Escherichia coli TOP10?
Response: 0.127

Prompt: I'm curious: which shrunken log2 fold change was measured for `RRIRFRPPRLPRPRPRPGLYPRP` tested on Escherichia coli TOP10?
Response: -0.171

Prompt: I'm curious: which shrunken log2 fold change was measured for `RRIRPRPPRLPRPRPRPADHPRP` tested on Escherichia coli TOP10?
Response: -0.015

Prompt: I'm curious: which shrunken log2 fold change was measured for `RRIRARPPRLPRPRPRPLQPPRP` tested on Escherichia coli TOP10?
Response: 0.583

Prompt: I'm curious: which shrunken log2 fold change was measured for `RRIRKRPPRLPRPRPRPWAIPRP` tested on Escherichia coli TOP10?;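 further: peptides expressed intracellularly from a pBAD plasmid library in pooled LB shake-flask culture, induced with 0.3% L-arabinose, DNA abundance read by NGS, three biological replicates, DESeq2 with apeglm shrinkage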
Response: 0.14
